Listing of entries alongside the reported cytotoxicity at 10 µM.
Method: Toxicity liver stage against HepG2, at 10uM
Type: cell-based
Set-up: test concentration 10 uM, cell line HepG2-A16-CD81EGFP
Reported conditions: human, HepG2-A16-CD81EGFP cells; read-out: INHIBITION
# output: bare number, implied unit %

A selection of reference data follows.
Molecule	Unit abbrev	cytotoxicity at 10 µM
CCOC(=O)CCC(=O)N1CCC(Oc2ccc(C(F)(F)F)cn2)CC1	%	11.6
Cc1nc(CN2CCOC(CNc3cccnn3)C2)cs1 (stereo unspecified)	%	-12
COc1ccc(C(=O)N2C[C@@H](C(=O)O)[C@H](c3cccc(F)c3)C2)c(O)c1	%	6.03
Cc1cnc(N2CC[C@H]3[C@@H]2CCC(=O)N3c2cccnc2)nc1	%	-0.298

Entry "COc1ccc(N2CCN(C(=O)[C@@H]3C[C@@H](O)CN3)CC2(C)C)cc1" , cytotoxicity at 10 µM reported as 4.95

Entry "CN1CCN(c2ccc(F)cc2NC(=O)NCc2ccon2)CC1" , cytotoxicity at 10 µM reported as -6.84

Entry "Cc1nc(C(=O)NCCS(=O)(=O)N2CCCC2)cs1" , cytotoxicity at 10 µM reported as 13.4

Entry "CC1(C)CN(Cc2nnc(-c3cccnc3)o2)CC[C@]1(C)O" , cytotoxicity at 10 µM reported as -10.2

Entry "Cc1ccc(S(C)(=O)=O)cc1C(=O)NS(=O)(=O)c1ccc(Cl)cc1" , cytotoxicity at 10 µM reported as -13.5
